- systemUnderTest: SARS-CoV-2 PLpro (nsp3 1564–1878) (Severe acute respiratory syndrome coronavirus 2, UniProt P0DTD1)
- protocolSummary: biochemical
- Design: FRET-quenched peptide (Pro3) cleavage by PLpro, 10 min pre-incubation, slope over 20 min, normalised to no-compound control
- conditionNotes: read-out: % of control remaining
assayReadout: remaining activity at 1.25 µM (%)
Kindly answer with a numeric value in %, unit omitted.

# molecule, unitAbbrev, remaining activity at 1.25 µM
data = [
    ("Oc1ccc2c3c1O[C@H]1[C@@H](O)CC[C@@]4(O)[C@@H](C2)N(CC2CCC2)CC[C@]314 [Nalbuphine]", "%", 95.6),
    ("O=Cc1cn(Cc2ccc(Cl)cc2)c2ccccc12 [Oncrasin-1]", "%", 95.2),
    ("CC(C)C[C@H](NC(=O)[C@H](Cc1ccccc1)NC(=O)CNC(=O)[C@@H](C)NC(=O)[C@@H](N)Cc1ccc(O)cc1)C(=O)O [[D-Ala2]leucine-enkephalin]", "%", 101),
]

Prompt: Entry CCCCCCC(C)(C)c1ccc([C@@H]2C[C@H](O)CC[C@H]2CCCO)c(O)c1 [CP55940] has what remaining activity at 1.25 µM?
Response: 104

Prompt: Entry C[S+]([O-])CCCN=C=S (stereo not shown) [Iberin] has what remaining activity at 1.25 µM?
Response: 95.3

Prompt: Entry CC1(C)[C@@H](O)C[C@H]2[C@](C)(O)[C@@H]3CC[C@@H]4[C@@H](O)[C@@]3(C[C@@H](O)[C@@]21O)C[C@@]4(C)O [Grayanotoxin III] has what remaining activity at 1.25 µM?
Response: 103

Prompt: Entry Nc1c(S(=O)(=O)O)cc(Nc2ccc(Nc3nc(Cl)nc(Nc4cccc(S(=O)(=O)O)c4)n3)c(S(=O)(=O)O)c2)c2c1C(=O)c1ccccc1C2=O [Reactive Blue 2] has what remaining activity at 1.25 µM?
Response: 101

* * *

Below, each entry is listed with its recorded remaining activity at 1.25 µM.
- systemUnderTest: SARS-CoV-2 PLpro (nsp3 1564–1878) (Severe acute respiratory syndrome coronavirus 2, UniProt P0DTD1)
- protocolSummary: biochemical
- Parameters: FRET-quenched peptide (Pro3) cleavage by PLpro, 10 min pre-incubation, slope over 20 min, normalised to no-compound control
- conditionNotes: read-out: % of control remaining
Structures can show the parent of a compound that is named as a salt.
Kindly answer with a numeric value in %, unit omitted.

Some entries whose results are on file:
# molecule, unitAbbrev, remaining activity at 1.25 µM
records = [
    ("CCCCCCCCC(=O)NCc1ccc(O)c(OC)c1 [N-Vanillylnonanamide]", "%", 96.7),
    ("C/C(=C/C=C/[C@@H](C)C(=O)O)[C@H]1CN[C@H](C(=O)O)[C@H]1CC(=O)O [Domoic acid]", "%", 99.4),
    ("Cc1cccc(-c2nn(C(=S)Nc3ccccc3)cc2-c2ccnc3ccccc23)n1", "%", 99.2),
]

Prompt: Entry CCCn1c(C)c(C(=O)c2cccc3ccccc23)c2ccccc21 [JWH-015] has what remaining activity at 1.25 µM?
Response: 92.6

Prompt: Entry CCN(CC)c1ncnc2c1ncn2[C@@H]1O[C@H](COP(=O)(O)OP(=O)(O)C(Br)(Br)P(=O)(O)O)[C@@H](O)[C@H]1O [ARL 67156 trisodium salt] has what remaining activity at 1.25 µM?
Response: 96

* * *

- systemUnderTest: SARS-CoV-2 PLpro (nsp3 1564–1878) (Severe acute respiratory syndrome coronavirus 2, UniProt P0DTD1)
- protocolSummary: biochemical
- Set-up: FRET-quenched peptide (Pro3) cleavage by PLpro, 10 min pre-incubation, slope over 20 min, normalised to no-compound control
- conditionNotes: read-out: % of control remaining
Where a name gives a salt, the structure may show the parent alone.
assayReadout: remaining activity at 3.75 µM (%)
Kindly answer with a numeric value in %, unit omitted.

Some entries whose results are on file:
# compound, unitAbbrev, remaining activity at 3.75 µM
rows = [
    ("O=C1C[C@@H]2OCC=C3CN4CC[C@]56c7ccccc7N1[C@H]5[C@H]2[C@H]3C[C@H]46", "%", 94.7),
    ("CCN1C[C@]2(COC)[C@H](O)C[C@H](OC)[C@@]34[C@@H]5C[C@@]6(O)[C@H](OC(=O)c7ccccc7)[C@@H]5[C@@](OC(C)=O)([C@@H]([C@H](OC)[C@H]23)[C@@H]14)[C@@H](O)[C@@H]6OC [Aconitine]", "%", 98.5),
    ("CCOP(=O)(OCC)C(=Cc1cc(C(C)(C)C)c(O)c(C(C)(C)C)c1)P(=O)(OCC)OCC [SR 12813]", "%", 103),
    ("CCCn1c(C)c(C(=O)c2cccc3ccccc23)c2ccccc21 [JWH-015]", "%", 93.1),
    ("Cc1cccc(-c2nn(C(=S)Nc3ccccc3)cc2-c2ccnc3ccccc23)n1", "%", 100),
]

Prompt: Entry C[C@]12Cc3c[nH]nc3C[C@@H]1CC[C@@H]1[C@@H]2CC[C@@]2(C)[C@H]1CC[C@]2(C)O [Stanozolol] has what remaining activity at 3.75 µM?
Response: 95.3

Prompt: Entry COC(=O)C1=C(C)NC(C)=C(C(=O)OCCCN2CCC(c3ccccc3)(c3ccccc3)CC2)[C@H]1c1cccc([N+](=O)[O-])c1 [Niguldipine] has what remaining activity at 3.75 µM?
Response: 100

Prompt: Entry Nc1c(S(=O)(=O)O)cc(Nc2ccc(Nc3nc(Cl)nc(Nc4cccc(S(=O)(=O)O)c4)n3)c(S(=O)(=O)O)c2)c2c1C(=O)c1ccccc1C2=O [Reactive Blue 2] has what remaining activity at 3.75 µM?
Response: 101

Prompt: Entry Oc1ccc2c3c1O[C@H]1[C@@H](O)CC[C@@]4(O)[C@@H](C2)N(CC2CCC2)CC[C@]314 [Nalbuphine] has what remaining activity at 3.75 µM?
Response: 97.3

Prompt: Entry CCCCCCCCC(=O)NCc1ccc(O)c(OC)c1 [N-Vanillylnonanamide] has what remaining activity at 3.75 µM?
Response: 96.6

Prompt: Entry O=C1CCC(c2ccccc2)(C2CCN(Cc3ccccc3)CC2)C(=O)N1 (stereo not shown) [Benzetimide (hydrochloride)] has what remaining activity at 3.75 µM?
Response: 97.6

Prompt: Entry CC(C)C[C@H](NC(=O)[C@H](Cc1ccccc1)NC(=O)CNC(=O)[C@@H](C)NC(=O)[C@@H](N)Cc1ccc(O)cc1)C(=O)O [[D-Ala2]leucine-enkephalin] has what remaining activity at 3.75 µM?
Response: 98.6

Prompt: Entry O=Cc1cn(Cc2ccc(Cl)cc2)c2ccccc12 [Oncrasin-1] has what remaining activity at 3.75 µM?
Response: 101

Prompt: Entry Cc1ccc(C)c(OCCn2cc(C(=O)O)c3ccccc32)c1 [ML-098] has what remaining activity at 3.75 µM?
Response: 97.6

Prompt: Entry C=C(C)[C@@H]1[C@H]2OC(=O)[C@@H]1[C@]1(O)C[C@H]3O[C@]34C(=O)O[C@H]2[C@]14C [Picrotoxinin] has what remaining activity at 3.75 µM?
Response: 101

Prompt: Entry CN1C2CCC1CC(NC(=O)c1nn(C)c3ccccc13)C2 (stereo not shown) [LY-278,584 maleate] has what remaining activity at 3.75 µM?
Response: 101

Prompt: Entry COc1cc2c(c(OC)c1OC)-c1ccc(OC)c(=O)cc1[C@@H](NC=O)CC2 [N-Formyl-Deacetylcolchicine] has what remaining activity at 3.75 µM?
Response: 103

Prompt: Entry Oc1ccc(-c2c(-c3ccccc3)nn3c(C(F)(F)F)cc(C(F)(F)F)nc23)cc1 [PHTPP] has what remaining activity at 3.75 µM?
Response: 101

Prompt: Entry Cc1ccccc1CN1C(=O)C2=C(CCN(Cc3ccccc3)C2)N2CCN=C12 [TIC10] has what remaining activity at 3.75 µM?
Response: 96.2

* * *

- systemUnderTest: SARS-CoV-2 PLpro (Severe acute respiratory syndrome coronavirus 2)
- Assay type: biochemical
- conditionNotes: 10 µM inhibitor, 50 nM PLpro, 1 µM substrate, 1 h 25°C
assayReadout: Inhibition of pro-ISG15 cleavage (deISGylating activity)

# compound, experimentalResult
data = [
    ("CC1(C)CCC2=C(O1)c1ccccc1C(=O)C2=O [beta-Lapachone]", "potent inhibition"),
    ("Cc1cccc2c3c(ccc12)C1=C(C(=O)C3=O)[C@@H](C)CO1 [Dihydrotanshinone I]", "potent inhibition"),
]

* * *

- System: SARS-CoV-2
- protocolSummary: microbe, parasite or virus in culture
- Assay type: cell-based
- conditionNotes: Severe acute respiratory syndrome coronavirus 2, Vero C1008, VERO E6 cells, compound alone; read-out: EC50 viral proliferation
Below, each entry is listed with its recorded EC50.
Kindly answer with a numeric value in µM, unit omitted.

Prompt: Entry Cc1cc2nc3c(=O)[nH]c(=O)nc-3n(C)c2cc1C=O has what EC50?
Response: 20

Prompt: Entry CC1(C)CCC2=C(O1)c1ccccc1C(=O)C2=O has what EC50?
Response: 4.39

Prompt: Entry Cc1cccc2c3c(ccc12)C1=C(C(=O)C3=O)[C@@H](C)CO1 [Dihydrotanshinone I] has what EC50?
Response: 8
